FYI, the data here is from ChEMBL document CHEMBL1201862.

- Tested on: SNB-78
- Procedure Summary: NCI tumour cell line growth inhibition, 48 h
Calls of active or inactive are those of the source. Cut-off read from the data, not from the text of the source: active = GI50 up to about 1.1 µM and inactive = higher.
Permitted responses: yes = active, no = inactive

- COC1=CC(=O)NCCN1: no

*Q* Would you mind telling me which call this test gave COc1cc(C2c3cc4c(cc3C(NCC(O)CO)C3COC(=O)[C@H]23)OCO4)cc(OC)c1OC (stereo partly specified) ?
*A* yes

* * *

- Tested on: Malme-3M
- Procedure Summary: NCI tumour cell line growth inhibition, 48 h
Activity calls are given as the source filed them. Rule as the data show it: active = GI50 up to about 1.1 µM and inactive = higher.
Assay Readout: GI50

Consider the worked cases shown below.
- Nc1nc(N)nc(CCCc2nc(N)nc(N)n2)n1: > 100 µM (inactive)
- C#CCN(Cc1ccc2nc(-c3ccccc3)c(Cl)nc2c1)c1ccc(Cl)c(Cl)c1: > 100 µM (inactive)
- CNC(=S)N/N=C1\C(=O)N(CN2CCOCC2)c2ccc([N+](=O)[O-])cc21: 16.1 µM (inactive)
- CC1=C2C3OC(=O)C(C)C3C(O)C[C@@]2(C)C(=O)CC1 (some centres undefined): > 100 µM (inactive)

For record "C[C@]12CC[C@H](O[C@@H]3O[C@H](CO[C@@H]4O[C@H](CO)[C@@H](O)[C@H](O)[C@H]4O)[C@@H](O)[C@H](O)[C@H]3O)C[C@@H]1CC[C@@H]1[C@@H]2CC[C@]2(C)[C@@H](C3=CC(=O)OC3)CC[C@]12O" the listed GI50 is 17.5 µM (inactive)

For record "C=CC(=O)N1C/C(=C\c2ccc([N+](=O)[O-])cc2)C(=O)/C(=C/c2ccc([N+](=O)[O-])cc2)C1" the listed GI50 is 0.201 µM (active)

For record "Cn1c(=O)c2c(nc(C(=N)SCC(=O)O)n2C)n(C)c1=O" the listed GI50 is 45.1 µM (inactive)

For record "CCOC(=O)/C(C(N)=O)=C(O)/C(O)=C/C(=O)c1ccc(Cl)cc1" the listed GI50 is 17.9 µM (inactive)

For record O=C1NC(=O)/C(=C/c2ccc(S(=O)(=O)N/N=C\C(O)C(O)C(O)C(O)CO)cc2)N1 (centres undefined) the listed GI50 is > 100 µM (inactive)

For record "O=[N+]([O-])c1ccc(Sc2c3ccccc3nc3cc(Cl)ccc23)cc1" the listed GI50 is > 10 µM (inactive)

* * *

- System: MOLT-4
- Procedure Summary: NCI tumour cell line growth inhibition, 48 h
The source made the active and inactive calls. Cut-off read from the data, not from the text of the source: active = GI50 up to about 1.1 µM and inactive = higher.
Permitted responses: active, inactive

Use the examples below as a reference point.
* O=C1/C(=C/c2ccccc2)CCC/C1=C\c1ccccc1 | inactive
* CCOC(=O)c1nc2ccccc2n(CC)c1=O | inactive
* CCCSc1nc(COC(=O)NC)c(COC(=O)NC)n1C | inactive

*Q* Would you mind telling me which call this test gave "CC(C)OC(=O)C1=C(O)c2ccccc2S(=O)(=O)N1" ?
*A* inactive

*Q* Would you mind telling me which call this test gave CC(C)N(C(=O)C12C3C4C5C3C1(C#N)C5C42)C(C)C (stereo unspecified) ?
*A* inactive

*Q* Would you mind telling me which call this test gave "O=C1c2cccnc2-c2nccc3ccnc1c23" ?
*A* active

*Q* Would you mind telling me which call this test gave CC1=C(O)C(=O)C=C2C1=CC=C1[C@@]2(C)CC[C@@]2(C)C3C[C@@H](C)C(=O)[C@@H](O)[C@]3(C)CC[C@]12C (stereo partly specified) ?
*A* active

*Q* Would you mind telling me which call this test gave "CN(C)C(=S)SCC(N)=O" ?
*A* inactive

*Q* Would you mind telling me which call this test gave C=C(Cl)C(=C)CCC(Cl)C(C)C (stereo unspecified) ?
*A* inactive

*Q* Would you mind telling me which call this test gave "CCOC(=O)c1cc(-c2ccc(-c3cc(C(=O)OCC)c(C#N)c(N)c3C#N)cc2)c(C#N)c(N)c1C#N" ?
*A* inactive

*Q* Would you mind telling me which call this test gave CC1=Nc2ccccc2C12C(c1ccccc1)C(c1ccccc1)C(=O)N1c3ccccc3CC12 (stereo unspecified) ?
*A* inactive

*Q* Would you mind telling me which call this test gave "CCCC(=O)Oc1ccc2c(C)cc(=O)oc2c1OC(=O)CCC" ?
*A* inactive

*Q* Would you mind telling me which call this test gave COc1ccc(CCC2NCCc3cc(OC)c(OC)cc32)cc1 (stereo unspecified) ?
*A* inactive

*Q* Would you mind telling me which call this test gave "Cc1cccc(N/C(Sc2ccccc2)=C(/C(Cl)=C(Cl)Cl)[N+](=O)[O-])c1" ?
*A* inactive

*Q* Would you mind telling me which call this test gave COc1ccc2c(c1)CC1Cc3cc(OC)c(OC)cc3CN1CC2 (stereo unspecified) ?
*A* inactive

*Q* Would you mind telling me which call this test gave CCOC(=O)c1c(-c2ccccc2)c(C(OC(c2ccccc2)c2c(-c3ccccc3)c(C(=O)OCC)n3ccccc23)c2ccccc2)c2ccccn12 (stereo unspecified) ?
*A* inactive

*Q* Would you mind telling me which call this test gave Cc1cc(O)nc(NN2C(Cl)C(=O)C2c2cccc([N+](=O)[O-])c2)n1 (stereo unspecified) ?
*A* inactive

*Q* Would you mind telling me which call this test gave COc1c(C(=O)CC2c3c(cc4oc(C)cc(=O)c4c3OC)OC(=N)C2c2nc3ccccc3[nH]2)c(O)c(OC)c2occc12 (stereo unspecified) ?
*A* inactive

*Q* Would you mind telling me which call this test gave CCOP1(=O)C=C(C)C(=C(Cl)Cl)C(C)=C1 (stereo unspecified) ?
*A* inactive

*Q* Would you mind telling me which call this test gave "CC(C)(/N=N/C(C)(C)C(=O)NCCO)C(=O)NCCO" ?
*A* inactive

*Q* Would you mind telling me which call this test gave "C/C(=C/c1c(C)[nH]c(=O)[nH]c1=O)C(=O)O" ?
*A* inactive

* * *

- Test system: SR
- Procedure Summary: NCI tumour cell line growth inhibition, 48 h
The source made the active and inactive calls. Cut-off read from the data, not from the text of the source: active = GI50 up to about 1.1 µM and inactive = higher.
Entries annotated with measured GI50

Consider the worked cases shown below.
• O=S1(=O)CCN(c2ccccc2CC(c2c[nH]c3ccccc23)c2c[nH]c3ccccc23)CC1 = 3.08 µM (inactive)
• CC1=C2c3c(C)ccc4ccc(C)c(c34)C2(O)C(C)C1=O (stereo unspecified) = > 100 µM (inactive)
• CCCCCCCCCCCCCCCCCc1nc(C#N)c(N)o1 = 7.89 µM (inactive)

For record "O=C1c2n[nH]nc2C(=O)c2n[nH]nc21" the listed GI50 is > 100 µM (inactive)

For record "O=C1c2sc(-c3ccc(F)cc3)cc2-n2cccc21" the listed GI50 is 17.8 µM (inactive)

For record "O=[N+]([O-])c1ccc(Sc2c3ccccc3nc3cc(Cl)ccc23)cc1" the listed GI50 is 25.7 µM (inactive)

* * *

Entries annotated with measured GI50
- Test system: K562
- Procedure Summary: NCI tumour cell line growth inhibition, 48 h
The source made the active and inactive calls. Cut-off read from the data, not from the text of the source: active = GI50 up to about 1.1 µM and inactive = higher.

Consider the worked cases shown below.
* COc1ccc2cc3c4cc(OC)c(OC)cc4ccn3c2c1 | > 100 µM (inactive)
* C[C@]12CC[C@H](O[C@@H]3O[C@H](CO[C@@H]4O[C@H](CO)[C@@H](O)[C@H](O)[C@H]4O)[C@@H](O)[C@H](O)[C@H]3O)C[C@@H]1CC[C@@H]1[C@@H]2CC[C@]2(C)[C@@H](C3=CC(=O)OC3)CC[C@]12O [UZARIN] | 24.2 µM (inactive)
* O=C1/C(=C/c2ccccc2)CCC/C1=C\c1ccccc1 [2,6-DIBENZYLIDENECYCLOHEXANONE] | 3.58 µM (inactive)

For record COc1cc(C2C(C#N)=C(N)OC3=C2CCS(=O)(=O)c2ccc(C)cc23)cc(OC)c1OC (centres undefined) the listed GI50 is > 100 µM (inactive)

* * *

- Test system: KM12
- Procedure Summary: NCI tumour cell line growth inhibition, 48 h
Activity calls are given as the source filed them. No stated cut-off is given here; in the data, active = GI50 up to about 1.1 µM and inactive = higher.
Permitted responses: y (active), n (inactive)

Use the examples below as a reference point.
* CN(NC(=O)/C(=C\c1ccco1)NC(=O)c1ccccc1)c1cn[nH]c(=O)c1Cl | n
* Cc1cc(S(=O)(=O)Nc2nncn2-c2ccc(Cl)cc2)c(S)cc1Cl | n
* CC1=C(O)C(=O)C=C2C1=CC=C1[C@@]2(C)CC[C@@]2(C)C3C[C@@H](C)C(=O)[C@@H](O)[C@]3(C)CC[C@]12C (stereo not given in full) | n
* CC1=Nc2ccccc2C12C(c1ccccc1)C(c1ccccc1)C(=O)N1c3ccccc3CC12 (stereo not given) | n
* CCOP(=O)(OCC)/C(C#N)=C/c1cc(O)ccc1O | n

Now consider the entry below.
*Q* Would you mind telling me which call this test gave O=P1(C(O)/C=C/c2ccccc2)N(Cc2ccccc2)[C@@H]2CCCC[C@H]2N1Cc1ccccc1 (stereo not given in full) ?
*A* n

* * *

- Test system: HCC 2998
- Procedure Summary: NCI tumour cell line growth inhibition, 48 h
The source made the active and inactive calls. No stated cut-off is given here; in the data, active = GI50 up to about 1.1 µM and inactive = higher.
Permitted responses: 1 (active), 0 (inactive)

*Q* Would you mind telling me which call this test gave "Nc1nc2cc(Cl)ccc2n1N" ?
*A* 0

*Q* Would you mind telling me which call this test gave COc1c(C(=O)CC2c3c(cc4oc(C)cc(=O)c4c3OC)OC(=N)C2c2nc3ccccc3[nH]2)c(O)c(OC)c2occc12 (configuration not stated) ?
*A* 0

*Q* Would you mind telling me which call this test gave "[N-]=[N+]=CC(=O)OCCCCl" ?
*A* 0

*Q* Would you mind telling me which call this test gave COc1cc([C@@H]2c3cc4c(cc3[C@@H](NCc3ccccc3)C3COC(=O)[C@@H]32)OCO4)cc(OC)c1O (some centres not stated) ?
*A* 0

*Q* Would you mind telling me which call this test gave "O=c1[nH]cc(/C=N\Nc2ccccc2)c(=O)[nH]1" ?
*A* 0

*Q* Would you mind telling me which call this test gave "CCOC(=O)/C=C(\C(=O)OCC)n1cc(C)c(=O)n(Cc2cnnn2CCCCOC(C)=O)c1=O" ?
*A* 0

*Q* Would you mind telling me which call this test gave CSC1NC(c2ccc(Cl)cc2)=C(C#N)C(=O)N1C1OCC(OC(C)=O)C(OC(C)=O)C1OC(C)=O (configuration not stated) ?
*A* 0

*Q* Would you mind telling me which call this test gave O=C1/C(=C/c2cccs2)N=C(c2ccccc2)N1C1Nc2cc3c(cc2S1)NC(N1C(=O)/C(=C/c2cccs2)N=C1c1ccccc1)S3 (configuration not stated) ?
*A* 0

*Q* Would you mind telling me which call this test gave "O=[N+]([O-])c1ccc(Sc2c3ccccc3nc3cc(Cl)ccc23)cc1" ?
*A* 0

*Q* Would you mind telling me which call this test gave CCOP1(=O)C=C(C)C(=C(Cl)Cl)C(C)=C1 (configuration not stated) ?
*A* 0

*Q* Would you mind telling me which call this test gave CC(=O)c1cccc(NC(=O)C(=O)C(C(=O)c2ccccc2F)C2OC(=O)c3ccccc32)c1 (configuration not stated) ?
*A* 0

*Q* Would you mind telling me which call this test gave COc1cc(/C=C2/C(=O)N(C(=O)OC(C)C)C(Cc3cc(OC)c(OC)c(C)c3OC)C(=O)N2Cc2ccccc2)c(OC)c(C)c1OC (configuration not stated) ?
*A* 0

*Q* Would you mind telling me which call this test gave CC(=O)OC1COC(n2c(N)c(C#N)c(C)c(C#N)c2=S)C(OC(C)=O)C1OC(C)=O (configuration not stated) ?
*A* 0

*Q* Would you mind telling me which call this test gave "CC1(C)OC[C@@H](O)[C@H](Br)CO1" ?
*A* 0

*Q* Would you mind telling me which call this test gave "Cc1c2cc[n+](C)cc2c(C)c2c1[nH]c1ccc(Cl)cc12" ?
*A* 0

*Q* Would you mind telling me which call this test gave "C=C(Nc1ccc(OC)cc1OC)C(=O)Cc1cccc[n+]1[O-]" ?
*A* 0
